- protocol-details: Henry solubility constant Hcp at 298.15 K (mol/(m3 Pa))
- test-conditions: reference: Cetin et al. (2006)
# cutoff 0.5 applies to Henry solubility constant Hcp; >= gives Y, < gives N

Decide: Henry solubility constant Hcp of ClC(Cl)=C(c1ccc(Cl)cc1)c1ccc(Cl)cc1 [1,1-dichloro-2,2-bis-(4-chlorophenyl)-ethene] >= 0.5?
N

Item ClC1C(Cl)C(Cl)C(Cl)C(Cl)C1Cl (configuration not stated) [γ-1,2,3,4,5,6-hexachlorocyclohexane] with Henry solubility constant Hcp of 0.5 or above?
Y

For this molecule, is measured Henry solubility constant Hcp 0.5 or higher? ClC1=C(Cl)[C@]2(Cl)[C@H]3[C@H](Cl)[C@@H](Cl)C[C@H]3[C@@]1(Cl)C2(Cl)Cl [trans-chlordane]
N

I'd appreciate it if you could say whether CCOP(=S)(OCC)Oc1nc(Cl)c(Cl)cc1Cl [chlorpyrifos] has Henry solubility constant Hcp at least equal to 0.5.
N

Is Henry solubility constant Hcp for ClC1=C(Cl)C2(Cl)[C@H]3C(Cl)C(Cl)C(Cl)[C@H]3C1(Cl)C2(Cl)Cl (stereo partly drawn) [cis-nonachlor] at or above 0.5?
Y

Exam item: decide whether the reported Henry solubility constant Hcp for ClC1=C(Cl)[C@]2(Cl)[C@@H]3[C@@H]4C[C@@H]([C@H]5O[C@@H]45)[C@@H]3[C@@]1(Cl)C2(Cl)Cl [dieldrin] is at least 0.5.
Y

====

Would you kindly list Henry solubility constant Hcp for each of these compounds?
- protocol-details: Henry solubility constant Hcp at 298.15 K (mol/(m3 Pa))
- test-conditions: reference: Cetin et al. (2006)
Please give only the number in your answer, with no unit.

Form field Henry solubility constant Hcp, entry ClC1=C(Cl)[C@]2(Cl)[C@H]3[C@H]([C@@H]4C=C[C@H]3C4)[C@@]1(Cl)C2(Cl)Cl : 0.022

Reported Henry solubility constant Hcp of ClC1=C(Cl)[C@]2(Cl)[C@@H]3[C@@H](Cl)[C@@H](Cl)C[C@@H]3[C@@]1(Cl)C2(Cl)Cl [cis-chlordane] : 0.15

Short answer for Clc1ccc(C(c2ccc(Cl)cc2)C(Cl)Cl)cc1 : Henry solubility constant Hcp was 0.91

The compound identified as ClC1=C(Cl)C2(Cl)C3C(Cl)C(Cl)C(Cl)C3C1(Cl)C2(Cl)Cl (stereo not drawn) [trans-nonachlor] registered its Henry solubility constant Hcp at 0.088

The compound identified as ClC1=C(Cl)[C@]2(Cl)[C@@H]3[C@H]4C[C@H]([C@@H]5O[C@H]45)[C@@H]3[C@@]1(Cl)C2(Cl)Cl registered its Henry solubility constant Hcp at 1.8

The measured Henry solubility constant Hcp associated with ClC1C(Cl)C(Cl)C(Cl)C(Cl)C1Cl (stereo not drawn) [α-1,2,3,4,5,6-hexachlorocyclohexane] reads 3

Record ClC1=C(Cl)C2(Cl)C3C(Cl)C=CC3C1(Cl)C2(Cl)Cl (stereo not drawn) , field Henry solubility constant Hcp: 0.019

Notebook: Clc1ccc(C(c2ccc(Cl)cc2)C(Cl)(Cl)Cl)cc1 , Henry solubility constant Hcp read as 0.9
